- assay_summary: Metabolic stability in rat hepatocytes (rHep)
- condition_context: n = 1 or geometric mean of n = 2-3

compound	unit_string	measurement_qualifier	rHep CLint
N#C[C@@H]1CSCN1C(=O)CNC(=O)c1ccnc2ccc(N3CC4C(C3)C4(F)F)cc12 (some centres unmarked)	μL/min/1E6	=	33
N#C[C@@H]1CSCN1C(=O)CNC(=O)c1ccnc2ccc(N3CCC4(CC3)OCCCO4)cc12	μL/min/1E6	=	2.8
CC1(C)CN(c2ccc3nccc(C(=O)NCC(=O)N4CSC[C@H]4C#N)c3c2)C(=O)O1	μL/min/1E6	=	5.4
Cc1cc2nccc(C(=O)NCC(=O)N3CSC[C@H]3C#N)c2cc1N1CCOCC1	μL/min/1E6	=	41
N#C[C@@H]1CSCN1C(=O)CNC(=O)c1ccnc2cc(Cl)c(N3CCOCC3)cc12	μL/min/1E6	=	47
CC1(C(F)F)CN(c2ccc3nccc(C(=O)NCC(=O)N4CSC[C@H]4C#N)c3c2)C1	μL/min/1E6	=	6.8
C[C@@H]1CCN(c2ccc3nccc(C(=O)NCC(=O)N4CSC[C@H]4C#N)c3c2)C1	μL/min/1E6	=	63
COC1CN(c2ccc3nccc(C(=O)NCC(=O)N4CSC[C@H]4C#N)c3c2)C1	μL/min/1E6	<	1

---

In this section, each of the compounds is paired with its reported microsomal CLint.
- assay_summary: Metabolic stability in human liver microsomes (HLM)
- condition_context: human, HLM CLint, n = 1 or average of n = 2-3

compound	measurement_qualifier	microsomal CLint / µL/min/mg
N#C[C@@H]1CSCN1C(=O)CNC(=O)c1ccnc2cc(Cl)c(N3CCOCC3)cc12 [Example 179]	=	140
N#C[C@@H]1CSCN1C(=O)CNC(=O)c1ccnc2ccc(N3CCCCC3=O)cc12 [Example 14]	<	3
N#C[C@@H]1CSCN1C(=O)CNC(=O)c1ccnc2ccc(N3CC(CC(F)(F)F)C3)cc12 [Example 158]	=	17
COC[C@@H]1[C@@H](C)OCCN1c1ccc2nccc(C(=O)NCC(=O)N3CSC[C@H]3C#N)c2c1 [Example 97]	=	32
N#C[C@@H]1CSCN1C(=O)CNC(=O)c1ccnc2ccc(N3CC[C@@H](F)C3)cc12 [Example 52]	=	22
N#C[C@@H]1CSCN1C(=O)CNC(=O)c1ccnc2ccc(-n3ccnc3-c3ccccc3)cc12 [Example 217]	>	300

---

pIC50: −log10 of the molar value.
Reported pIC50 for target or system Prolyl endopeptidase, Prolyl Oligopeptidase (hPREP) (Homo sapiens (Human), UniProt P48147), by entry.

molecule	study_target	pIC50
N#C[C@@H]1CSCN1C(=O)CNC(=O)c1ccnc2ccc(N3CCCC3=O)cc12 [Example 11]	Prolyl endopeptidase, Prolyl Oligopeptidase (hPREP) (Homo sapiens (Human), UniProt P48147)	6.85
CC1(C)CCN(c2ccc3nccc(C(=O)NCC(=O)N4CSC[C@H]4C#N)c3c2)C1=O [Example 12]	Prolyl endopeptidase, Prolyl Oligopeptidase (hPREP) (Homo sapiens (Human), UniProt P48147)	6.29
N#C[C@@H]1CSCN1C(=O)CNC(=O)c1ccnc2ccc(N3CC[C@@H](CO)C3)cc12 [Example 220]	Prolyl endopeptidase, Prolyl Oligopeptidase (hPREP) (Homo sapiens (Human), UniProt P48147)	6.41
N#C[C@@H]1CSCN1C(=O)CNC(=O)c1ccnc2ccc(N3CCC4(CC3)COC4)cc12 [Example 229]	Prolyl endopeptidase, Prolyl Oligopeptidase (hPREP) (Homo sapiens (Human), UniProt P48147)	6.49
N#C[C@@H]1CSCN1C(=O)CNC(=O)c1ccnc2ccc(N3CC(OC(F)F)C3)cc12 [Example 136]	Prolyl endopeptidase, Prolyl Oligopeptidase (hPREP) (Homo sapiens (Human), UniProt P48147)	6.52
N#C[C@@H]1CSCN1C(=O)CNC(=O)c1ccnc2ccc(N3CCC34CCC4)cc12 [Example 19]	Prolyl endopeptidase, Prolyl Oligopeptidase (hPREP) (Homo sapiens (Human), UniProt P48147)	6.80
N#C[C@@H]1CSCN1C(=O)CNC(=O)c1ccnc2ccc(N3CC4(CCS4)C3)cc12 [Example 222]	Prolyl endopeptidase, Prolyl Oligopeptidase (hPREP) (Homo sapiens (Human), UniProt P48147)	6.31
N#C[C@@H]1CSCN1C(=O)CNC(=O)c1ccnc2ccc(N3CC(CC(F)F)C3)cc12 [Example 144]	Prolyl endopeptidase, Prolyl Oligopeptidase (hPREP) (Homo sapiens (Human), UniProt P48147)	6.34
N#C[C@@H]1CSCN1C(=O)CNC(=O)c1ccnc2ccc(N3CCCC[C@@H](F)C3)cc12 [Example 59]	Prolyl endopeptidase, Prolyl Oligopeptidase (hPREP) (Homo sapiens (Human), UniProt P48147)	7.52
C[C@@]1(O)CCN(c2ccc3nccc(C(=O)NCC(=O)N4CSC[C@H]4C#N)c3c2)C1 [Example 167]	Prolyl endopeptidase, Prolyl Oligopeptidase (hPREP) (Homo sapiens (Human), UniProt P48147)	6.00
N#C[C@@H]1CSCN1C(=O)CNC(=O)c1ccnc2ccc(N3CC4C(C3)C4(F)F)cc12 (stereo partly shown) [Example 160]	Prolyl endopeptidase, Prolyl Oligopeptidase (hPREP) (Homo sapiens (Human), UniProt P48147)	6.68
CC1CC2(C1)CN(c1ccc3nccc(C(=O)NCC(=O)N4CSC[C@H]4C#N)c3c1)C2 [Example 149]	Prolyl endopeptidase, Prolyl Oligopeptidase (hPREP) (Homo sapiens (Human), UniProt P48147)	6.33
N#C[C@@H]1CSCN1C(=O)CNC(=O)c1ccnc2ccc(-c3cccnc3)cc12 [Example 126]	Prolyl endopeptidase, Prolyl Oligopeptidase (hPREP) (Homo sapiens (Human), UniProt P48147)	6.59
COCC1(C)CN(c2ccc3nccc(C(=O)NCC(=O)N4CSC[C@H]4C#N)c3c2)C1 [Example 29]	Prolyl endopeptidase, Prolyl Oligopeptidase (hPREP) (Homo sapiens (Human), UniProt P48147)	6.30
CC1(O)CCN(c2ccc3nccc(C(=O)NCC(=O)N4CSC[C@H]4C#N)c3c2)CC1 [Example 190]	Prolyl endopeptidase, Prolyl Oligopeptidase (hPREP) (Homo sapiens (Human), UniProt P48147)	6.16
N#C[C@@H]1CSCN1C(=O)CNC(=O)c1ccnc2ccc(N3CC(F)(c4ccccc4)C3)cc12 [Example 182]	Prolyl endopeptidase, Prolyl Oligopeptidase (hPREP) (Homo sapiens (Human), UniProt P48147)	6.68
